Please respond with reported abundance fitness for every item in the list.
B1: Chromodomain-helicase-DNA-binding protein 4, residues 365 to 417; numbered along this chain, Q14839 (parent)
chain: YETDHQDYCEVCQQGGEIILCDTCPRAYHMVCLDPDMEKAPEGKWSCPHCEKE

variants of: B1; experiment: abundance fitness (aPCA) (normalised: wild type 0, dead -1); higher = more abundant; growth selection in yeast, the domain comes from the species named; conditions: Homo sapiens
Give bare numbers.

# batch: return abundance fitness for each of the 5 variants below
1. C47L
2. K52G
3. K44A
4. C21L
5. K52M

# output
1. -0.75
2. -0.204
3. -0.017
4. -1.06
5. -0.376

I have 3 variants here; please give me abundance fitness for each one.
1. C21Y
2. I18K
3. M37P

# output
1. -0.765
2. -0.305
3. 0.026

For each of the items listed, what is its abundance fitness?
1. C32L
2. D36T
3. H49P

# output
[-0.776, 0.078, -0.041]

Origin of the recorded values: the Human Domainome abundance scans (Beltran et al. 2025)
